// provenance: patent US10206893B2

Biological target: indoleamine 2,3-dioxygenase (IDO) (Homo sapiens, UniProt P14902)
Sequence (P14902 whole entry): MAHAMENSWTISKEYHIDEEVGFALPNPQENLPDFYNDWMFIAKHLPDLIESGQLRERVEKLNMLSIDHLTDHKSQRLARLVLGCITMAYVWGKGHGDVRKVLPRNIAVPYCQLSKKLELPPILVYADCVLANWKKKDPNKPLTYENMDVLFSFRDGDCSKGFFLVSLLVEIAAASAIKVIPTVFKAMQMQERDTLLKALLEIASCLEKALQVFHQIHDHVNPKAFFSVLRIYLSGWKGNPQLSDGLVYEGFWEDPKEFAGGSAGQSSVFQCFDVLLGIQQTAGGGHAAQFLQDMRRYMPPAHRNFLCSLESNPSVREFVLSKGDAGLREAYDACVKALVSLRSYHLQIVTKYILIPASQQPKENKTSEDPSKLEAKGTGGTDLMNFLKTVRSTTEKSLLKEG
Experiment: HeLa cell-based indoleamine 2,3-dioxygenase (IDO) assay (IFNγ-induced kynurenine production)
Conditions: Tables 3-7; compounds shown only as drawings; read-out: Potency (IDO IC50)
Procedure: Assessment of inhibitor activity in HeLa cell-based indoleamine 2,3-dioxygenase (IDO) assay. […] IDO activity was assessed as a function of kynurenine production as follows: HeLa cells were seeded in a 96-well culture plate at a density of 5,000 cells/well and allowed to equilibrate overnight. […] The percentage activity at each inhibitor concentration was determined and IC50 values assessed using nonlinear regression. […]
pIC50: −log10 of the molar value.
Assign pIC50 to each entry below.

INSERT INTO assay_data (molecule, testsystem, experimentalvalue) VALUES
  ('N#Cc1ccc(NC(=O)[C@H]2CC[C@H](Cc3ccccc3)CC2)cc1', 'indoleamine 2,3-dioxygenase (IDO) (Homo sapiens, UniProt P14902)', '> 5.70'),
  ('COc1ccc(C2CCC(CC(Nc3ccc(F)cc3)C(F)(F)F)CC2)cc1 (stereo not shown)', 'indoleamine 2,3-dioxygenase (IDO) (Homo sapiens, UniProt P14902)', '> 7.30'),
  ('O=C(Nc1ccc(Cl)cc1)N[C@H]1CC[C@@H](c2ccccc2)CC1', 'indoleamine 2,3-dioxygenase (IDO) (Homo sapiens, UniProt P14902)', '> 6.60');

Kindly consider the entry below.
The molecule COc1ccc(C2CCC(CC(Nc3ccc(Cl)cc3)C(F)(F)F)CC2)cc1 (stereo not shown) showed pIC50 equal to > 7.30
